molecular target: Ionotropic glutamate receptor NMDA 1/2D (Rattus norvegicus) (UniProt P35439+Q62645); test: Positive allosteric modulation of recombinant rat GluN1/GluN2D receptor expressed in xenopus laevis oocyte assessed as potentiation of glutamate and glycine-induced current response at 30 uM at holding potential -40mV by two electrode voltage clamp method relative to control
MEASUREMENT_NAME: Activity (%)
Unit % implied. Number only.

Check out these entries, answers already filled in.
MOLECULE	Activity, %
CCOc1ccc(OCC2c3ccc(OC(C)C)cc3CCN2C(=O)c2cccc(C)c2)cc1 (configuration not stated)	43
CCOc1ccc(OCC2c3ccc(N4CCOCC4)cc3CCN2C(=O)c2cccc(Cl)c2)cc1 (configuration not stated)	104

# input Data request, read-out Activity, for CCOc1ccc(OCC2c3ccc(OC(C)C)cc3CCN2C(=O)c2ccc(F)cc2)cc1 (configuration not stated)
# output 90
